These entries and their values trace back to the supplement of paper PMC9732359.

experiment: protein stability index of a GFP-peptide fusion (yeast GPS) (PSI 1-4); higher = more stable; sorted into four equal gates, so the index is relative within each strain; settings: ubr1∆
Cut-off 3 on protein stability index, inclusive. At or above means condition met; below means condition not met.

Examples from the recorded data:
> print(dat)
              entry.sequence           category
1   QRGKMHGLKQLRDSLAD [NUT2]  condition not met
2   FVKPGTALDAEGAARGT [DIS3]      condition met
3  VICSVTGPIEPKARQEL [RRP46]  condition not met

Task item: Check the entry LDCDGGFIDASCIAVMA [RRP45] : does protein stability index equal or exceed 3?
Reply: condition not met

Task item: How about RIGKHRKHPGGRGMAGG [RPL28] ?
Reply: condition met

Task item: How about YAIKKKDELERVAKSNR [RPS5] ?
Reply: condition met

Task item: How about SKASMQKEQNVNNRDSE [YCS4] ?
Reply: condition not met

###

assay: protein stability index of a GFP-peptide fusion (yeast GPS) (PSI 1-4); higher = more stable; sorted into four equal gates, so the index is relative within each strain; conditions: san1∆
metric: protein stability index
Would you mind answering with just the numeric figure?

> print(dat)
               entry.sequence  endpoint.value
1  KDLKFPLPHRVQKSTKT [RPL20A]            2.58

Task item: What value of measured protein stability index is listed for QESLVKLFTTNELMRWP [RPN5] ?
Reply: 3.15

Task item: How about YTYSSTLSHLRRTNTPI [RPB2] ?
Reply: 2.23

Task item: How about MDRDSESEEAETKDIRK [SRB4] ?
Reply: 2.62

Task item: How about YNNRKCWPKDSRMRLIR [PRP8] ?
Reply: 2.19

Task item: How about QSTPQPDDMVEINSVGN [ITC1] ?
Reply: 3.04

Task item: How about LTLIFYDVLHDVFTINP [YML103C/NUP188] ?
Reply: 2.3

Task item: How about VVDTEETATLIMNELYR [SMC3] ?
Reply: 2.79

Task item: How about DNETPSKKTSPKATSSA [YOR098C/NUP1] ?
Reply: 2.41

Task item: How about VNIVEKDGAKFIEVRNF [RPL9A] ?
Reply: 3.02

Task item: How about NLTPANILNMSMNNDFQ [PGD1] ?
Reply: 3.01

Task item: How about PSMKKIKIEPSADDDVN [SIR3] ?
Reply: 2.75

###

experiment: protein stability index of a GFP-peptide fusion (yeast GPS) (PSI 1-4); higher = more stable; sorted into four equal gates, so the index is relative within each strain; settings: doa10∆
Some sequences, each annotated with its measured protein stability index.
Would you mind answering with just the numeric figure?

> print(dat)
               entry.sequence  endpoint.value
1    ECYKQLFLTAPDSCNMQ [YCS4]            2.42
2  KDLKFPLPHRVQKSTKT [RPL20A]            2.27
3    TTIQTEKVRPTPGEVAS [MCD1]            2.74
4    RCMMAAQYFYSGAYSYP [DIS3]            2.14
5    NSNINTLTASPDGTLIA [ASC1]            2.88

Let us move to another entry and its protein stability index.
Task item: What value of measured protein stability index is listed for ADVYAKALEGKDLKEIL [RPP1B] ?
Reply: 3.45
